Quick list: IC50 per entry.
System: LPS-induced NO production in RAW 264.7 macrophages
testName: Inhibition of LPS-induced NO production in macrophages (Griess reagent)
Assay type: cell-based, Murine
conditionsUsed: Mus musculus, RAW264.7, read-out: IC50 (50% inhibitory concentration), NO production inhibition; RAW 264.7 pretreated with compound 1 h, then LPS 1 μg/mL for 24 h; Griess; mean ± SD of 3 tests
measuredAttribute: IC50

compound=C=C(C)[C@H](CC=C(C)C)Cc1c(O)cc(OC)c2c1O[C@H](c1ccc(O)cc1O)CC2=O measuredattribute=IC50 experimentalresult="14.4 µM"
compound=CC(C)=CCc1c(O)c(CC=C(C)C)c2c(c1O)C(=O)C[C@@H](c1ccc(O)cc1O)O2 measuredattribute=IC50 experimentalresult="9.3 µM"
compound=CC(C)=CCc1c(O)cc(O)c2c(=O)c(O)c(-c3ccc(O)cc3)oc12 measuredattribute=IC50 experimentalresult="12.4 µM"
compound=C=C(C)[C@H](CC=C(C)C)Cc1c(O)cc(OC)c2c1O[C@H](c1ccc(O)cc1O)[C@@H](O)C2=O measuredattribute=IC50 experimentalresult="7.2 µM"
compound="C=C(C)C(CC=C(C)C)Cc1c(O)cc(O)c2c(=O)c(O)c(-c3ccc(O)cc3)oc12 (stereo not drawn)" measuredattribute=IC50 experimentalresult="5.7 µM"
compound="COc1cc(O)c(CC=C(C)C)c2c1C(=O)CC(c1ccc(O)cc1)O2 (stereo not drawn)" measuredattribute=IC50 experimentalresult="8.4 µM"

###

testName: Cytotoxicity on RAW 264.7 macrophages (MTT cell viability)
Assay type: cell-based, Murine
conditionsUsed: mouse
Quick list: CC50 per entry.
measuredAttribute: CC50 (µM)

compound=C=C(C)[C@H](CC=C(C)C)Cc1c(O)cc(OC)c2c1O[C@H](c1ccc(O)cc1O)[C@@H](O)C2=O measurementqualifier== experimentalresult=20.6
compound="C=C(C)C(CC=C(C)C)Cc1c(O)cc(O)c2c(=O)c(O)c(-c3ccc(O)cc3)oc12 (stereo not drawn)" measurementqualifier== experimentalresult=13.8
compound=CC(C)=CCc1c(O)cc(O)c2c(=O)c(O)c(-c3ccc(O)cc3)oc12 measurementqualifier=> experimentalresult=50
compound="COc1cc(O)c(CC=C(C)C)c2c1C(=O)CC(c1ccc(O)cc1)O2 (stereo not drawn)" measurementqualifier=> experimentalresult=50
compound=CC(C)=CCc1c(O)c(CC=C(C)C)c2c(c1O)C(=O)C[C@@H](c1ccc(O)cc1O)O2 measurementqualifier== experimentalresult=18.8
compound=C=C(C)[C@H](CC=C(C)C)Cc1c(O)cc(OC)c2c1O[C@H](c1ccc(O)cc1O)CC2=O measurementqualifier== experimentalresult=33.8

###

testName: Cytotoxicity on RAW 264.7 macrophages (MTT cell viability)
Type: cell-based, Murine
conditionsUsed: mouse; RAW 264.7 macrophages, MTT, compound 1 h then LPS 1 μg/mL 24 h; mean ± SD of 3 tests
measuredAttribute: CC50

compound="[H]/N=C(/NC)NCCC[C@H](N)C(=O)O [L-NMMA, reference compound]" experimentalresult="> 50 µM"

Just for reference, paper PMC10004487 is where these values come from.
